Experimental Target: phenylethanolamine N-methyltransferase (PNMT), non-immobilized (Bos taurus)
Sequence (P10938 whole entry): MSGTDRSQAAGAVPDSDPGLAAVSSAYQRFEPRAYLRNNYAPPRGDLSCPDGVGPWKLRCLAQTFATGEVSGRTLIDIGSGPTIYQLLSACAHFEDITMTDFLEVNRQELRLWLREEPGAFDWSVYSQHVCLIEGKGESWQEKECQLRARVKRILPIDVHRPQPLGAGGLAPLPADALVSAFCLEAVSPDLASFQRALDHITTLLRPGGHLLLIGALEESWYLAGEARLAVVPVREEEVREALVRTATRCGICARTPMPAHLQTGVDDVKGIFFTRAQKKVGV
Test Name: Non-immobilized PNMT activity assay, batch incubation with HPLC-fluorescence analysis
Type: biochemical, bovine
Observation Type: pIC50
Give only the number. pIC50 is defined as minus log10 of concentration in molar units.

Ask: Give its pIC50 value. Item: Nc1ncnc2c1ncn2[C@@H]1O[C@H](CSCC[C@H](N)C(=O)O)[C@@H](O)[C@H]1O [SAH, S-adenosyl-L-homocysteine]
Result: 4.40

---

Experimental Target: dopamine beta-hydroxylase (DBH), non-immobilized (Bos taurus)
Construct: purchased
Test Name: Non-immobilized DBH activity assay, batch incubation with HPLC-fluorescence analysis
Type: biochemical, bovine
Observation Type: pIC50
Scale explanation: pIC50 corresponds to minus log10 of a concentration expressed in moles per litre.

Ask: So what does the record say about pIC50 for CCCCc1ccc(C(=O)O)nc1 [Fusaric acid, fusaric acid] ?
Result: 8.12

---

The entries below are paired with their reported Ki.
Experimental Target: PNMT-Glut-P stationary phase (PNMT-SP) (Bos taurus, UniProt P10938)
Sequence (P10938 whole entry): as above
Test Name: PNMT immobilized on Glut-P stationary phase (PNMT-SP), batch assay
Assay type: biochemical, bovine
Experimental Setup: immobilized PNMT; read-out: Ki PNMT-SP
Procedure: The activity of phenylethanolamine N-methyltransferase was assayed as follows: [final concentration] To 500 μL of enzyme solution [163 μg] was added 50 μL S-adenosyl-L-methionine [20 μM] and the solution was vortexed for 1 min. The reaction was started by addition of the 50 μL substrate [1 mM]. The reaction medium was incubated for 10 min at 37° C. in a shaking bath. […]
# number only, unit µM dropped from output

Cl.NCc1ccccc1 [Benzylamine, benzylamine hydrochloride]
690

Now turn to the next compound.
Ask: Given the entry CCN1C(=O)C=CC1=O [N-ethylmaleimide] , what Ki was observed with PNMT-Glut-P stationary phase (PNMT-SP) (Bos taurus, UniProt P10938)?
Result: 4.92

---

Experimental Target: DBH-Glut-P IMER (immobilized dopamine beta-hydroxylase) (Bos taurus)
Construct: purchased
Sequence (P15101 1-610): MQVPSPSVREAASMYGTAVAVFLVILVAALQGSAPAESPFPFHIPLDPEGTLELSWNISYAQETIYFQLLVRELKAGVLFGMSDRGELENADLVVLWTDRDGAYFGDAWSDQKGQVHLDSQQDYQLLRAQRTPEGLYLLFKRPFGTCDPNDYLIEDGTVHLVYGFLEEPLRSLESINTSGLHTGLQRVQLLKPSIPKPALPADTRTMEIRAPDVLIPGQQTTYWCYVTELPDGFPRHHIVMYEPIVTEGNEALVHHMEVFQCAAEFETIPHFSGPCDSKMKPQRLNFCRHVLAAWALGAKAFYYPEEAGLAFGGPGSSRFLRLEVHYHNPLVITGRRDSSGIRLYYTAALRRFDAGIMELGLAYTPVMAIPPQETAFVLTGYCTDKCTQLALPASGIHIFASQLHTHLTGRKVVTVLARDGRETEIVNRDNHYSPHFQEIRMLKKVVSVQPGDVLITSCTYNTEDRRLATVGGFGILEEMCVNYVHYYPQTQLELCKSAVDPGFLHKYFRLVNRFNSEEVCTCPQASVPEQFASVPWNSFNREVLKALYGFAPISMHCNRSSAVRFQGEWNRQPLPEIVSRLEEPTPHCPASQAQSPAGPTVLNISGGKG
Test Name: On-line DBH-Glut-P immobilized enzyme reactor (DBH-Glut-P IMER) HPLC system
Format: biochemical, bovine
Observation Type: IC50 (nM)
Please state the figure in nM; there is no need to write the unit.

Ask: Field request: IC50 | item: CCCCc1ccc(C(=O)O)nc1
Result: 5.6
